Documented phosphorylation enrichment across a set of sequences
study.system: Fes (UniProt P07332)
Sequence (P07332 whole entry, looked up): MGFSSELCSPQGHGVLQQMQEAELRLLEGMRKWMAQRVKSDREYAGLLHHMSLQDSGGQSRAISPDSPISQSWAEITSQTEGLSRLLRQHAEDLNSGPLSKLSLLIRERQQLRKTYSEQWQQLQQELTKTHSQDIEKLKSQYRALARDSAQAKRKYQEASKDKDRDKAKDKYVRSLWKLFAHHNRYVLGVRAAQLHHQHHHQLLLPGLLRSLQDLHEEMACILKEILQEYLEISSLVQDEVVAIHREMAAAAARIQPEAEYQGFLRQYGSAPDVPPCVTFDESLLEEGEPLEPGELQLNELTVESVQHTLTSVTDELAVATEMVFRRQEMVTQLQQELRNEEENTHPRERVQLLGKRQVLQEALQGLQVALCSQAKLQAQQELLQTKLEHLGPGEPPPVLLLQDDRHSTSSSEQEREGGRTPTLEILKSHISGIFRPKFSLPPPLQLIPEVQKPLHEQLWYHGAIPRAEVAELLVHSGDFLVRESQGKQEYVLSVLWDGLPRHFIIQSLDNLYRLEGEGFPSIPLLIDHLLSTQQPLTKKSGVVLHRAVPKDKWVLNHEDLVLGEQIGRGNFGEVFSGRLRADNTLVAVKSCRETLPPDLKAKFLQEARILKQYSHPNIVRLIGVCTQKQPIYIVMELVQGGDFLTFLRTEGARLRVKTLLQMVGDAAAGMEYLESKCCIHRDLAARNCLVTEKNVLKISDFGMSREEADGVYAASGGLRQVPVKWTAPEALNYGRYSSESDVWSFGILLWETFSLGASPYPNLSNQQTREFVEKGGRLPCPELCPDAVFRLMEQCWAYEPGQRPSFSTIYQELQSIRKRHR
protocol.description: phosphorylation enrichment, bacterial display (enrichment ratio); higher = better substrate or ligand; peptides without Tyr show the background;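 also: 11-residue human phosphosite peptides and single-mutation variants displayed on the E. coli surface, counted by deep sequencing, each peptide's frequency after selection divided by its frequency in the unselected input library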;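 also: frequency after pTyr selection over input frequency; kinase dosed for 20-30% of maximal phosphorylation in three min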
outcome.measure: phosphorylation enrichment

sequence_data="IKGIRYLHHRG [GUCY2D_Y656]" obs_value=0.469
sequence_data="TLQSMYGCDVG [HLA-B_Y123]" obs_value=0.979
sequence_data="WPLKWYVPECI [ZAP70_Y506_A507V]" obs_value=1.18
sequence_data="TTIVSYRASQP [MKI67_Y1737_K1734I]" obs_value=0.663

###

study.system: Fyn (UniProt P06241)
Sequence (P06241 whole entry, looked up): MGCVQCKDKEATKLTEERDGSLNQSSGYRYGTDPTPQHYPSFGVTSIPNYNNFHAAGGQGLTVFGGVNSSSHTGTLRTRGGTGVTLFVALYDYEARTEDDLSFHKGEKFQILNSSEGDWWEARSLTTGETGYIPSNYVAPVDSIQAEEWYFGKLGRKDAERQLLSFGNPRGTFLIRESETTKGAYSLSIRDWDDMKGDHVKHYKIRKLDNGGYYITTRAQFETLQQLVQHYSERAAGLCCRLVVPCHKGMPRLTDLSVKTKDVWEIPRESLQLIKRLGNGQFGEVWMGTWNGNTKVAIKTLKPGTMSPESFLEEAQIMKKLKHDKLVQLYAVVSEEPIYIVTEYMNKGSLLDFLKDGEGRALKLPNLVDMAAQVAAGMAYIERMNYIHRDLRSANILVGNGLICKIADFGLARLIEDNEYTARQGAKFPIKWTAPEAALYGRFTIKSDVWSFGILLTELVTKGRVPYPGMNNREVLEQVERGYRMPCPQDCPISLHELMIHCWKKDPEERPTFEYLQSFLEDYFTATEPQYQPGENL
protocol.description: phosphorylation enrichment, bacterial display (enrichment ratio); higher = better substrate or ligand; peptides without Tyr show the background
outcome.measure: phosphorylation enrichment

sequence_data="HSGIFYKPESL [L2HGDH_Y103_YF]" outcome_measure="phosphorylation enrichment" obs_value=0.642
sequence_data="IFLADCRIMEG [ALOX12B_Y318_Y318C_YF]" outcome_measure="phosphorylation enrichment" obs_value=0.579
sequence_data="EFKKHYGFSLF [ANXA3_Y295_YF]" outcome_measure="phosphorylation enrichment" obs_value=0.413
sequence_data="INITIYGKTFH [EFHC1_Y177_R182H]" outcome_measure="phosphorylation enrichment" obs_value=0.519
sequence_data="TMEDSYRKQVV [KRAS_Y40_I36M]" outcome_measure="phosphorylation enrichment" obs_value=0.273
sequence_data="LESTLYESSVV [TRPV4_Y91]" outcome_measure="phosphorylation enrichment" obs_value=1.26
sequence_data="FQRLRYIKQLG [SAMHD1_Y146]" outcome_measure="phosphorylation enrichment" obs_value=0.399
sequence_data="SHSMRYFSTAV [HLA-C_Y31_D33S]" outcome_measure="phosphorylation enrichment" obs_value=0.459
sequence_data="REAAAYPHGRL [AGXT_Y297_L298P]" outcome_measure="phosphorylation enrichment" obs_value=0.274
sequence_data="RLYARYFQGDL [PDK3_Y337]" outcome_measure="phosphorylation enrichment" obs_value=0.6
sequence_data="PRARTYCFKQE [KLHDC9_Y175_S171R_YF]" outcome_measure="phosphorylation enrichment" obs_value=0.421
sequence_data="VLTSKYCGGGG [HBA1_Y141_R142C]" outcome_measure="phosphorylation enrichment" obs_value=0.429
sequence_data="DSILVYQGKEQ [USH2A_Y1909]" outcome_measure="phosphorylation enrichment" obs_value=0.433
sequence_data="KDKLPYPFDDP [GPX2_Y125_YF]" outcome_measure="phosphorylation enrichment" obs_value=0.556
sequence_data="AALVQYFMEHH [PTPN11_Y80_E76A_YF]" outcome_measure="phosphorylation enrichment" obs_value=0.439
sequence_data="HEVHIYEKSGA [ARPC1B_Y35]" outcome_measure="phosphorylation enrichment" obs_value=1.01
sequence_data="RGKDSYETSQL [SPP1_Y225]" outcome_measure="phosphorylation enrichment" obs_value=0.484
sequence_data=AKIDGYITSYR outcome_measure="phosphorylation enrichment" obs_value=0.433
sequence_data="GGGGGYNRSSG [FUS_Y232]" outcome_measure="phosphorylation enrichment" obs_value=0.371
sequence_data="AVPSLYASGRT [ACTA1_Y145_L142P]" outcome_measure="phosphorylation enrichment" obs_value=0.393
sequence_data="MGGSVYFSYPD [HIKESHI_Y55]" outcome_measure="phosphorylation enrichment" obs_value=3.16
sequence_data="DERQPYVHMNG [IGF1R_Y1346_A1347V]" outcome_measure="phosphorylation enrichment" obs_value=0.438
sequence_data="SRASFYRKGGC [ALK_Y1283_Y1278S_YF]" outcome_measure="phosphorylation enrichment" obs_value=0.433

###

Test system: Fer (mouse)
protocol.description: phosphorylation enrichment, bacterial display (enrichment ratio); higher = better substrate or ligand; peptides without Tyr show the background
Documented phosphorylation enrichment across a set of sequences
outcome.measure: phosphorylation enrichment

sequence_data="QNAGDYFDLFG [PTPN11_Y62_T59A_YF]" obs_value=0.681
sequence_data="GISDEYHVIRH [GCDH_Y398]" obs_value=0.405
sequence_data="QSHKVYFQHLL [POR_Y604_V605F]" obs_value=0.698

###

study.system: Hck (UniProt P08631)
Sequence (P08631 whole entry, looked up): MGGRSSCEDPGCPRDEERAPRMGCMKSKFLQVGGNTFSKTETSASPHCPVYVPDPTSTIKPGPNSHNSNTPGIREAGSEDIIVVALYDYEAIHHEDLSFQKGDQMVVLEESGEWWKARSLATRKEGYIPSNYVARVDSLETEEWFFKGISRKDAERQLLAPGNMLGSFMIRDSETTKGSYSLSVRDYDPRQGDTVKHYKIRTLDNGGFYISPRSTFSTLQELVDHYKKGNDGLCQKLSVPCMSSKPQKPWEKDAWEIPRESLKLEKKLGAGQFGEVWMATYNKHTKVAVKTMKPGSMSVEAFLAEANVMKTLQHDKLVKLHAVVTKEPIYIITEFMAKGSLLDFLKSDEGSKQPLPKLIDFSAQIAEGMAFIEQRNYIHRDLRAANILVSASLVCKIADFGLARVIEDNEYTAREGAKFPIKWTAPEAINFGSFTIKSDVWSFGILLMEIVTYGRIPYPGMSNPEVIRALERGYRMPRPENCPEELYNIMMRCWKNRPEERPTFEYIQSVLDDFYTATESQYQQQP
protocol.description: phosphorylation enrichment, bacterial display (enrichment ratio); higher = better substrate or ligand; peptides without Tyr show the background
I would appreciate it if you labelled entries Met when phosphorylation enrichment is 0.7 or higher, otherwise Not met.

sequence_data="NNPAFYVLEGV [INPPL1_Y987_YF]" assigned_label="Not met"
sequence_data="VSSSDYFSFVL [USP24_Y2138_Y2134S]" assigned_label=Met
sequence_data="MFQVQYNSSVD [LRFN1_Y458_YF]" assigned_label="Not met"
sequence_data="METKGYHSLPE [NR3C2_Y6]" assigned_label="Not met"
sequence_data="KNKNRCKNILP [PTPN11_Y279_Y279C]" assigned_label="Not met"
sequence_data="IGKAGYTDKVV [ENO1_Y236]" assigned_label="Not met"
sequence_data="YVFSFYHAFSG [ACTN4_Y265_S262F]" assigned_label=Met
sequence_data="DFFDLYGGQKF [PTPN11_Y66_E69Q_YF]" assigned_label=Met
sequence_data="LDAFIYNAAVL [GRIN2A_Y730_D731N]" assigned_label=Met
sequence_data="AEYGLYGAMVW [VSX2_Y222_R227W]" assigned_label=Met
sequence_data="SILAVYSKDNY [PANK2_Y400]" assigned_label=Met
sequence_data="ETMNKYDLSGR [MYEF2_Y164]" assigned_label="Not met"
sequence_data="KDHPDYKFQPR [SOX10_Y171_YF]" assigned_label="Not met"
sequence_data="LESTLYESSVV [TRPV4_Y91]" assigned_label=Met
sequence_data="RMLRKYQELMS [KRT74_Y425_E424K]" assigned_label="Not met"
sequence_data="QSHKVYFQHLL [POR_Y604_V605F]" assigned_label="Not met"
sequence_data="LNPDGYEKAYE [CPXM2_Y427]" assigned_label="Not met"
sequence_data="GKGGSYSKAES [HLA-E_Y341_W346S]" assigned_label="Not met"
sequence_data="DVELLYPVKEK [EPHX1_Y283]" assigned_label="Not met"
sequence_data="MCDKEYFSVHN [MET_Y1234_Y1230C_YF]" assigned_label="Not met"
sequence_data="TTPGPHRSIYF [MPG_Y71_Y71H]" assigned_label="Not met"
sequence_data="QMWLKYSQSDL [SMC1A_Y714_R711W]" assigned_label="Not met"
sequence_data="FHRQLYHKCTH [F12_Y58_YF]" assigned_label="Not met"
sequence_data="LFMGDYVDRGF [PPP2CA_Y86_YF]" assigned_label="Not met"
sequence_data="NSRYTCKLEVK [USH2A_Y3747_Y3747C]" assigned_label="Not met"
sequence_data="TRNVRYLTLDI [AKR1C2_Y305_N300T]" assigned_label="Not met"
sequence_data="PESIPYRKFTT [NTRK1_Y701_L700P]" assigned_label=Met
sequence_data="KVDKEYEVRVR [GHR_Y226]" assigned_label="Not met"
sequence_data="DAGTDYVGISC [FREM2_Y2061_R2066C]" assigned_label="Not met"
sequence_data="RAYRHYLLKQK [SCN2A_Y1919_R1918H]" assigned_label="Not met"
sequence_data="RDSQLYAVDFE [MRPS34_Y34_YF]" assigned_label=Met
sequence_data="LLREWYLQDPF [SIX3_Y225_YF]" assigned_label="Not met"
sequence_data="EEGNPYFSGAR [MCCC2_Y520_S523G_YF]" assigned_label=Met
sequence_data="SNNFIYTTLGV [FAM83B_Y639_K640T_YF]" assigned_label=Met
sequence_data="GTPVMYTYDEY [COL10A1_Y623]" assigned_label=Met
sequence_data="HFPFQCHRQLF [F12_Y53_Y53C_YF]" assigned_label=Met
sequence_data="TEAEPYFCSLR [NPHS1_Y1138_R1140C_YF]" assigned_label="Not met"
sequence_data="QNTGNYYDLYG [PTPN11_Y62_D61N]" assigned_label=Met
sequence_data="LATINYPFEKG [NDUFS8_Y84_P79L]" assigned_label="Not met"
sequence_data="GGFNNYGFGSD [HNRNPH3_Y159_N163S_YF]" assigned_label="Not met"
sequence_data="YGGLRYGYGVL [KRTAP20-2_Y13]" assigned_label=Met
sequence_data="EKLQKYFRQNP [EHHADH_Y682_YF]" assigned_label="Not met"
sequence_data="YAFQLYDLDRD [CHP2_Y123]" assigned_label=Met
sequence_data="FLAVEYHKPHI [IDS_Y225_G224E]" assigned_label="Not met"
sequence_data="SGSWSYNTSTE [SELE_Y24_A21S]" assigned_label="Not met"
sequence_data="TGNPAYRSFSN [IL4R_Y497_A492T]" assigned_label="Not met"
sequence_data="YPPDGYSRHCE [CTNND1_Y213_Y217C]" assigned_label="Not met"
sequence_data="GGMTEYELVVV [KRAS_Y4_K5E]" assigned_label="Not met"
sequence_data="SVIKEYQIRQV [USH2A_Y3623_G3618S]" assigned_label="Not met"
sequence_data="GRRGQYVMPSE [TTC7A_Y396_L399P]" assigned_label="Not met"

Where do these numbers come from? They come from the supplement of paper PMC10065799.
